# Target Desc: Calpain-2 catalytic subunit (Sus scrofa)
# Sequence (P43367 whole entry): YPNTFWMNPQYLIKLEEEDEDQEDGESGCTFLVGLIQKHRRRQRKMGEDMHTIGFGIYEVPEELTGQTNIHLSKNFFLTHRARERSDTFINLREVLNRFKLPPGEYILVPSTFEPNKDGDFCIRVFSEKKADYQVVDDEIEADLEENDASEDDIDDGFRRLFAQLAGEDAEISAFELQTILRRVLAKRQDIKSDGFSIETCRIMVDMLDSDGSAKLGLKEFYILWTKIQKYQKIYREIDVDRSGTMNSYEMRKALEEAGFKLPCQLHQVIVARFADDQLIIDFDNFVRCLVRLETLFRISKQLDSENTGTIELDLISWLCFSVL
# Assay Info: pig calpain II inhibitor potency, dose response, biochemical, fluorogenic peptide substrate (AID 1420)
# Type: functional
Assay Endpoint: IC50

# count of solved cases: 3
Compound: O=S(=O)(Cc1ccccc1)NCC1CCCN(Cc2ccc(F)c(F)c2)C1 (stereo not given)
Target Desc: Calpain-2 catalytic subunit (Sus scrofa)
IC50: 17.6 µM (not active)
//
Compound: CC1=CC2=NC(=O)/C(=C\c3cccn3CCOc3cc(C)cc(C)c3)C(=N)N2O1
Target Desc: Calpain-2 catalytic subunit (Sus scrofa)
IC50: 0.668 µM (not active)
//
Compound: O=C(NCCc1nnc2ccc(NCc3ccc(Cl)cc3)nn12)c1ccccc1
Target Desc: Calpain-2 catalytic subunit (Sus scrofa)
IC50: 6.17 µM (not active)

// recorded IC50 for COc1ccc(C(=O)CSc2nc(C(C)(C)C)nc3ccccc23)cc1 : 12.6 µM (not active)

Noted for Cc1ccnc(Nc2nc3ccccc3o2)n1 : its IC50 reads > 50 µM (not active)

Lab note: measured IC50 of Cc1[nH]c2ccccc2c1/C=N/NC(=S)NCc1ccccc1 was 15.1 µM (not active)

###

# Target Desc: DNA dC->dU-editing enzyme APOBEC-3G (Homo sapiens);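 note: Dose-response counterscreen measuring inhibition of APOBEC3G DNA deaminase activity, run while confirming APOBEC3A inhibitors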
# Sequence (Q9HC16 whole entry): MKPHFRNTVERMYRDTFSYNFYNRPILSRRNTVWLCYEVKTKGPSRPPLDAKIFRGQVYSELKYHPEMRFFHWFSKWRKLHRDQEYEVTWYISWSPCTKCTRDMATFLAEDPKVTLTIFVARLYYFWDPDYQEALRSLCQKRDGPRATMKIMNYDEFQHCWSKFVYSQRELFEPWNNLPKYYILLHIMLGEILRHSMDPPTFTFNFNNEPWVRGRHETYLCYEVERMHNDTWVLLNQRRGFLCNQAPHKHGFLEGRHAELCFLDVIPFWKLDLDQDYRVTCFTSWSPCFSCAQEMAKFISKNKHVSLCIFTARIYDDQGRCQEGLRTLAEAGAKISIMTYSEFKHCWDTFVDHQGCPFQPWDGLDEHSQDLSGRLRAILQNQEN
# Format: functional
The source made the active and inactive calls.
Assay Endpoint: IC50

Examples from the recorded data:
Compound: CCN1C(NCCOC)=N[C@@H](CCc2ccccc2)[C@H](C(=O)OC)[C@H]1C
Observed Measurement: 4.15 µM (active)
--
Compound: COC(=O)C1=C(C)N(Cc2ccccc2)C(NCCCOC(C)C)=N[C@H]1c1ccccc1
Observed Measurement: 5.12 µM (active)
--
Compound: C[N+]1(C)C2CCC1CC(OC(=O)c1ccccc1)C2 (centres undefined)
Observed Measurement: 1.75 µM (active)

compound O=C1N=C(S)SC1=C1CCCC1 , IC50 observed: 7.39 µM (active)

###

Entries with their measured AC50, system Cytochrome P450 1A2 (Homo sapiens, UniProt P05177):

Solved cases (3 shown):
Molecule: O=c1ccc(NS(=O)(=O)c2ccc(Cl)cc2)cn1Cc1ccc(Cl)c(Cl)c1
AC50: 28.2 µM (inconclusive)

Molecule: COC(=O)CN(c1ccccn1)S(=O)(=O)c1ccccc1
AC50: 25.1 µM (inconclusive)

Molecule: CCCC(=O)NC(Nc1ccccc1F)C(Cl)(Cl)Cl (stereo unspecified)
AC50: 22.4 µM (inconclusive)

Simply: CCNc1ncc2nc(-c3ccccc3)c(=O)n(CCc3ccccc3)c2n1 , Cytochrome P450 1A2 (Homo sapiens, UniProt P05177), AC50 = 12.6 µM (inconclusive)

Param item: COC(=O)[C@@]1(Cc2ccc(F)cc2)[C@H]2c3cc(C(=O)N(C)C)n(C)c3C[C@H]2CN1C(=O)c1ccccc1 ; param system: Cytochrome P450 1A2 (Homo sapiens, UniProt P05177); output AC50: 31.6 µM (inconclusive)

Param item: COc1ccc(-n2c(=O)c(CCc3ccccc3)nc3cncnc32)cc1 ; param system: Cytochrome P450 1A2 (Homo sapiens, UniProt P05177); output AC50: 25.1 µM (inconclusive)

Measured on Cytochrome P450 1A2 (Homo sapiens, UniProt P05177), CCOc1ccc(-n2ccnc2SCC(=O)Nc2nnc(CC)s2)cc1 has a documented AC50 of 20 µM (inconclusive)

Measured on Cytochrome P450 1A2 (Homo sapiens, UniProt P05177), CCN(CC)C(=O)c1ccc(O)c(OC)c1 has a documented AC50 of 12.6 µM (inconclusive)

COC(=O)c1ccccc1-c1ccc(/C=C2\C(=O)N(c3ccccc3)N=C2c2ccccc2)o1 tested on Cytochrome P450 1A2 (Homo sapiens, UniProt P05177) gave AC50: 5.01 µM (inconclusive)

Test item Cc1nnc(NC(=O)c2cccc(NC(=O)C(C)C)c2)s1 ; Cytochrome P450 1A2 (Homo sapiens, UniProt P05177); reported AC50 was 39.8 µM (inconclusive)

The molecule C[C@@H]1CCCC(CC(=O)O)(CC(=O)O)C1 on Cytochrome P450 1A2 (Homo sapiens, UniProt P05177): AC50 was 0.631 µM (inconclusive)

Reference source: ChEMBL document CHEMBL1201862
